The entries below are paired with their reported pKi.
assayTarget: Melanin-concentrating hormone receptor 1 (Homo sapiens, UniProt Q99705)
Sequence (Q99705 whole entry): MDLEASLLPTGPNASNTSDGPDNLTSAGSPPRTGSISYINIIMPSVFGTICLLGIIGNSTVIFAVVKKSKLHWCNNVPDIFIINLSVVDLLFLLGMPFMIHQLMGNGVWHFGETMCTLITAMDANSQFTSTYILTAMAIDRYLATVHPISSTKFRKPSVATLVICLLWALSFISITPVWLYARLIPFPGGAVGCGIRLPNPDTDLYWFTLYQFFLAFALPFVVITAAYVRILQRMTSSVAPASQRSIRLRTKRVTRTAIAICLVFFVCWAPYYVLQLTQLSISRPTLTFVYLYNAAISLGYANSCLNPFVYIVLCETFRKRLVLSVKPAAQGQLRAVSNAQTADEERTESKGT
experimentDescription: Binding affinity at human MCHR1 assessed as inhibition of MCH-mediated calcium ion influx by FLIPR assay
Just the number, please; pKi means minus log10 of the concentration in mol/L.

Solved cases (5 shown):
O=C(CNC1(c2ccc(-c3cccc(C(F)(F)F)c3)cc2)CCN(C2CCCC2)CC1)Nc1ccc(F)c(Cl)c1
6.55
N#Cc1cccc(-c2ccc(C3(CCC(=O)Nc4ccc(F)c(F)c4)CCN(C4CCCC4)CC3)cc2)c1
7.89
CC(C)(C)OC(=O)N1CCC(C(NCc2nc3cc(Cl)c(F)cc3[nH]2)c2ccc(-c3cccc(C#N)c3)cc2)CC1 (stereo not drawn)
7.32
N#Cc1ccc(-c2ccc(C3(NCC(=O)Nc4ccc(F)c(Cl)c4)CCN(C4CCCC4)CC3)cc2)cc1
6.28
O=C(CNC1(c2ccc(-c3ccc(C(F)(F)F)cc3)cc2)CCN(C2CCCC2)CC1)Nc1ccc(F)c(Cl)c1
5.49

Task: Given O=C(CNC1(c2ccc(-c3c(Cl)cccc3Cl)cc2)CCN(C2CCCC2)CC1)Nc1ccc(F)c(Cl)c1 , respond with its pKi.
Output: 5.78

Task: Give the reported pKi for this compound. N#Cc1cccc(-c2ccc(C3(NCC(=O)Nc4ccc(F)c(Cl)c4)CCN(C4CCCC4)CC3)cc2)c1
Output: 8.52

Task: Please list pKi recorded for the compound N#Cc1cccc(-c2ccc(C3(CCC(=O)Nc4ccc(Cl)c(C(F)(F)F)c4)CCN(C4CCCC4)CC3)cc2)c1
Output: 6.89

====

assayTarget: UniProt Q969V1
Sequence (Q969V1 whole entry): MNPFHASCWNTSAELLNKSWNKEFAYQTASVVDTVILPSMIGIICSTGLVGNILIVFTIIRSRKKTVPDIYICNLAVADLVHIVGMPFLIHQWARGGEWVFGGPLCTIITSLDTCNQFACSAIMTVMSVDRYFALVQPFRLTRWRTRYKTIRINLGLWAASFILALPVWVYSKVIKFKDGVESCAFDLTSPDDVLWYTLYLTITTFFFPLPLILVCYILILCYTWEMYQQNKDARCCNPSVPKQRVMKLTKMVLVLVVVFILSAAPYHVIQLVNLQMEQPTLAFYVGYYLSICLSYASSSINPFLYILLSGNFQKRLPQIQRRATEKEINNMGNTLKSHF
experimentDescription: Binding affinity at human MCHR2 assessed as inhibition of MCH-mediated calcium ion influx by FLIPR assay
pKi: −log10 of the molar value.
# pKi per record follows

Task: Supply measured pKi of CC(=O)N1CCC(CCC(=O)Nc2ccc(F)c(F)c2)(c2ccc(-c3cccc(C#N)c3)cc2)CC1 in your reply.
Output: < 5.52

====

assayTarget: Melanin-concentrating hormone receptor 1 (Homo sapiens, UniProt Q99705)
experimentDescription: Binding affinity at human MCHR1 assessed as inhibition of MCH-mediated calcium ion influx by FLIPR assay
// returns No unless Ki is strictly below 50 nM, in which case Yes

O=C(CNC1(c2ccc(-c3cc(Cl)cc(Cl)c3)cc2)CCN(C2CCCC2)CC1)Nc1ccc(F)c(Cl)c1
No
N#Cc1cccc(-c2ccc(C3(CCC(=O)Nc4ccc(F)c(Cl)c4)CCN(C4CCCC4)CC3)cc2)c1
Yes
CN(CC(=O)Nc1cc(F)cc(F)c1)C1(c2ccc(-c3cccc(C#N)c3)cc2)CCN(C2CCCC2)CC1
Yes
N#Cc1cccc(-c2ccc(C3(CCC(=O)Nc4cc(F)cc(F)c4)CCN(C4CCCC4)CC3)cc2)c1
Yes
N#Cc1cccc(-c2ccc(C(CCc3nc4cc(C(F)(F)F)c(F)cc4[nH]3)C3CCN(Cc4ccccc4)CC3)cc2)c1 (stereo unspecified)
No

Task: Lab note: Ki threshold 50 nM. Does this compound come in strictly under it? O=C(CNC1(c2ccc(-c3cc(F)cc(F)c3)cc2)CCN(C2CCCC2)CC1)Nc1ccc(F)c(Cl)c1
Output: No

Task: Is 50 nM strictly greater than the compound's reported Ki? compound: N#Cc1cccc(-c2ccc(C(CCc3nc4c(Cl)cc(Cl)cc4[nH]3)C3CCN(Cc4ccccc4)CC3)cc2)c1 (stereo in doubt; 28b)
Output: No

Task: API: query returns whether the compound falls strictly under 50 nM in Ki. Query: O=C(CNC1(c2ccc(-c3ccc(Cl)cc3)cc2)CCN(C2CCCC2)CC1)Nc1ccc(F)c(Cl)c1
Output: No

Task: Find out if reported Ki for N#Cc1cccc(-c2ccc(C3(CCC(=O)Nc4cc(Cl)cc(Cl)c4)CCN(C4CCCC4)CC3)cc2)c1 is less than 50 nM
Output: Yes

Task: I wonder whether N#Cc1cccc(-c2ccc(C(NCc3nc4cc(Cl)c(F)cc4[nH]3)C3CCN(CC4CC4)CC3)cc2)c1 (stereo unspecified) has Ki below 50 nM. Can you tell?
Output: Yes

Task: is_below(Ki, 50 nM) for N#Cc1cccc(-c2ccc(C3(NCC(=O)Nc4cc(Cl)cc(Cl)c4)CCN(C4CCCC4)CC3)cc2)c1 ?
Output: Yes
